Data origin, for the record: patent US20230406922A1

# experimentalTarget: T1, murine CD19 protein (murine, UniProt P25918 19-287, limits assumed)
# T1 construct: also called mouse CD19-his protein
# T1 sequence (looked up): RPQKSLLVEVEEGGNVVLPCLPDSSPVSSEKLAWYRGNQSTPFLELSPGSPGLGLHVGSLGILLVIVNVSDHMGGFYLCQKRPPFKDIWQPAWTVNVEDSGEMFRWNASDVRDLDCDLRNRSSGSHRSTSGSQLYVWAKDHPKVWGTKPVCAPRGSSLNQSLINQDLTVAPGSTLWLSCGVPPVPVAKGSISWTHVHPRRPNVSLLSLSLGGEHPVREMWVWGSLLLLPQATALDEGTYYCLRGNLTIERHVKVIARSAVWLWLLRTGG
# experiment: ELISA, murine CD19 coated
testReadout: OD450 at 0.0001 nM (OD450)
Respond numerically; units are OD450 and should not be typed.

{"binder": "FMC63-mIgG1 (antibody, V domains shown, Parent murine antibody; also called murine antibody FMC63) VH: EVKLQESGPGLVAPSQSLSVTCTVSGVSLPDYGVSWIRQPPRKGLEWLGVIWGSETTYYNSALKSRLTIIKDNSKSQVFLKMNSLQTDDTAIYYCAKHYYYGGSYAMDYWGQGTSVTVSS VL: DIQMTQTTSSLSASLGDRVTISCRASQDISKYLNWYQQKPDGTVKLLIYHTSRLHSGVPSRFSGSGSGTDYSLTISNLEQEDIATYFCQQGNTLPYTFGGGTKLEITR", "OD450 at 0.0001 nM (OD450)": 0.06}
{"binder": "FMC63.27-mIgG1 (antibody, V domains shown, Humanized FMC63; also called FMC63-L2H7) VH: EVTLKESGPVLVKPTETLTLTCTVSGVSLPDYGVSWIRQPPGKALEWLAVIWGSETTYYNSALKSRLTISKDNSKSQVVLTMTNMDPVDTATYYCAKHYYYGGSYAMDYWGQGTTVTVSS VL: DIQMTQSPSSLSASVGDRVTITCRASQDISKYLNWYQQKPGGAVKLLIYHTSRLHSGVPSRFSGSGSGTDYTLTISSLQPEDFATYYCQQGNTLPYTFGGGTKVEIKR", "OD450 at 0.0001 nM (OD450)": 0.06}

Request: Name the recorded OD450 at 0.0001 nM for FMC63.25-mIgG1 (antibody, V domains shown, Humanized FMC63; also called FMC63-L2H5) VH: EVTLKESGPVLVKPTETLTLTCTVSGFSLSDYGVSWIRQPPGKALEWLAVIWGSETTYYNSALKSRLTISKDTSKSQVVLTMTNMDPVDTATYYCAKHYYYGGSYAMDYWGQGTTVTVSS VL: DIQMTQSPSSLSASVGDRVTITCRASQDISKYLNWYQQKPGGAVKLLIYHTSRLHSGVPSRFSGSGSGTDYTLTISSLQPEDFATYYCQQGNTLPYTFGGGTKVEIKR .
Result: 0.08

Request: Name the recorded OD450 at 0.0001 nM for FMC63.26-mIgG1 (antibody, V domains shown, Humanized FMC63; also called FMC63-L2H6) VH: EVTLKESGPVLVKPTETLTLTCTVSGFSLPDYGVSWIRQPPGKALEWLAVIWGSETTYYNSALKSRLTISKDTSKSQVVLTMTNMDPVDTATYYCAKHYYYGGSYAMDYWGQGTTVTVSS VL: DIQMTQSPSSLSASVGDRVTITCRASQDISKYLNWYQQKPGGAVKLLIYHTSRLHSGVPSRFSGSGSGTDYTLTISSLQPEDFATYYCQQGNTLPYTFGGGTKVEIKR .
Result: 0.08
